# System: MS2 coat protein
# Test method notes: apparent KD of MS2 coat protein; designed switch direction (-1 OFF switch, 1 ON switch): -1; higher = weaker reporter binding
# Run conditions: input ligand: none
Values of apparent KD of MS2 coat protein greater than or equal to 90 nM map to Fulfilled; values below map to Not fulfilled.

>  <Residue sequence>
UAAUUAAUUAAUAAAUAAUACAUGAGGAUCACCCAUGUAGAUCCUACAUACAAUUUAAGUAGCUCGUCUUAUUAUUA [Sensor-V1 #61] (Eterna round: R97, puzzle: Sensor, turn-off variant 1)

>  <Answer label>
Fulfilled

$$$$
>  <Residue sequence>
CAGUACAGAGGAUAUACAUGAGGAUCACCCAUGUGUUCCAGCUAGGAGACUAGCAAGUGUAGAAGGCUGUACUG [Mat - Exclusion 3 - JL Mod - D8] (Eterna round: R97, puzzle: Exclusion 3)

>  <Answer label>
Fulfilled

$$$$
>  <Residue sequence>
UCACGGGACUGAGGAUAUACAUGAACCAUGUUUGUAGAAGGCAGAAGGUUUGAUCAUACACUAAACAUGAGGAUCACCCAUGUU [JR_ExcNG1_Sub027] (Eterna round: R96, puzzle: Exclusion NG 1)

>  <Answer label>
Not fulfilled

$$$$
>  <Residue sequence>
GACUAGGGAGGAUAUAUUUACAGUGUACCUCGGGUGAUCGCACUUGAGGAUCACCCAAGUAGAAGGCUCGAGGG [EX2 #27] (Eterna round: R97, puzzle: Exclusion 2)

>  <Answer label>
Not fulfilled

$$$$
>  <Residue sequence>
ACGCAUUGCCUUUGGUAGUGCGUAACAUGAGGAUCACCCAUGUAGGAUAUGGUAGGCUUUGCUUACCAGAAGGACAUUAUAUUC [JL ENG3 1.03] (Eterna round: R96, puzzle: Exclusion NG 3)

>  <Answer label>
Not fulfilled

$$$$
>  <Residue sequence>
UUGUUAUAUGUAGGAUAUGCGUGUUGUUAUUAGGCAGAAGGACAUGAGGAUCACCCAUGUAUGUUGUUGUUAUAUAUUAUAUAU [Title] (Eterna round: R96, puzzle: Exclusion NG 1)

>  <Answer label>
Not fulfilled

$$$$
>  <Residue sequence>
UUUGUUUAUGUAGGAUAUGCCUGGCGUGCCUUUGCAGAAGGACAUGAGGAUCACCCAUGUAACAUGAGGCUCACCCAUGUCGCU [salish99_ExNG1_r04_111] (Eterna round: R96, puzzle: Exclusion NG 1)

>  <Answer label>
Fulfilled

$$$$
>  <Residue sequence>
UAAACAUGGAUAUAACAGUACAUGAGGAUCACCCAUGUUAAUACGAUAGAUUAUAACAAGCUUUUUUGUCGUCUUAA [Cooked Book] (Eterna round: R97, puzzle: Sensor, turn-off variant 1)

>  <Answer label>
Not fulfilled

$$$$
>  <Residue sequence>
CGAUGCUCGUGUCCACAUGAGGAUCACCCAUGUCGAGUUAGCGAGGAUAUCGGUAACACAUAGUACGAGAAGGCGCGAACCUGA [Ex NG3 #27] (Eterna round: R96, puzzle: Exclusion NG 3)

>  <Answer label>
Not fulfilled

$$$$
>  <Residue sequence>
CAGUACGGAGGAUAUACAUGAGGAUCACCCAUGUGAGAGAUACUAGUGAGGUCGAUUAGUAGAAGGCUGUACUG [Mat X3R4 m6] (Eterna round: R97, puzzle: Exclusion 3)

>  <Answer label>
Not fulfilled

$$$$
